# system: Serine/threonine-protein kinase PLK1 (Homo sapiens) (UniProt P53350)
# Sequence (P53350 whole entry, looked up, the tested form may be a part): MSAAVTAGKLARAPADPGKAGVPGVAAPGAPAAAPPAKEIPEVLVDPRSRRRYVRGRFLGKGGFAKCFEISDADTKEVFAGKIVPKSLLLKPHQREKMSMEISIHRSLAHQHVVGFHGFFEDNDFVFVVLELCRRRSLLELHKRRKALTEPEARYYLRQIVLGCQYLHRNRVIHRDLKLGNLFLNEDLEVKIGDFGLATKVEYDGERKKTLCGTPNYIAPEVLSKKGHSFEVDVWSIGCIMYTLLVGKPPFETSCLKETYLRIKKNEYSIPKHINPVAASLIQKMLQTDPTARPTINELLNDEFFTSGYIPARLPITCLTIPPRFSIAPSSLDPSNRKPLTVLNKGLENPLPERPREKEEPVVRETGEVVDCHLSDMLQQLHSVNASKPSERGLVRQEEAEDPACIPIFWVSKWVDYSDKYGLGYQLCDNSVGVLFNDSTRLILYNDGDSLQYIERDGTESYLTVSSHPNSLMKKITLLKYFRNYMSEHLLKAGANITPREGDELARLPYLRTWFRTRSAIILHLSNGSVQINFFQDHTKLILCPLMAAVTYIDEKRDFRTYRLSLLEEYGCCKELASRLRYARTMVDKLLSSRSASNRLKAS
# assay_comment: qHTS for Inhibitors of PLK1-PDB (polo-like kinase 1 - polo-box domain): Primary Screen
# measurement_parameters: Plk1 PBD binding of FITC phosphopeptide, fluorescence polarization
Among all 360,000 compounds or so, about 10,000 (2.8%) were called active. About 4% were inconclusive and are not listed. For the sample, actives were picked, then their nearest neighbours and some compounds at random.
attribute_measured: max response, negative = inhibition

Given OCCc1ccc(NCCc2ccco2)cc1 , state its recorded max response, negative = inhibition.
-4.52% (inactive)

Next: Cc1ccc(S(=O)(=O)N2CC[C@H]3[C@@H](C2)C(=O)C[C@@H](c2ccccc2)N3S(=O)(=O)c2ccc(C)cc2)cc1
-5.58% (inactive)

Next: COc1cccc(OC)c1C(=O)N1CCN(Cc2ccccc2F)CC1
-14.6% (inactive)

Next: CC1(C(=O)NCC2CCOCC2)Cc2c(-c3cccc(C(N)=O)c3)ccnc2O1 (stereo not given)
-6.03% (inactive)

Next: COc1ccc(-c2nc(SCC(=O)N3CCCC3)n[nH]2)cc1
-1.92% (inactive)

Next: O=C1CCC(C(=O)OCC(=O)Nc2ccc(OC(F)F)cc2)=NN1
-4.05% (inactive)

Next: COc1cccc(NC(=O)CN(C)C(=O)c2cc(Cl)nc3ccccc23)c1
-14.4% (inactive)

Next: CCCn1cc(S(=O)(=O)c2ccc(C)cc2)c(=O)c2cc(OCC)ccc21
-12.4% (inactive)

Next: OC(c1ccccc1)(c1ccccc1)C1CCN(CCCOc2ccccc2)CC1
0.305% (inactive)

Next: COC(=O)C[C@H]1C=C[C@@H](NS(=O)(=O)c2ccc(C)cc2)[C@@H](CO)O1
2.12% (inactive)

---

# system: Serine/threonine-protein kinase PLK1 (Homo sapiens)
# assay_comment: qHTS for Inhibitors of PLK1-PDB (polo-like kinase 1 - polo-box domain): Primary Screen; further: series mostly up to about 57 µM; on the % scale 0 is the no-effect control and ±100 the full control effect; nearly all actives have a fitted effect of over 65% in size
# measurement_parameters: Plk1 PBD binding of FITC phosphopeptide, fluorescence polarization
Hit rate of the full screen: of about 360,000 compounds, about 10,000 (2.8%) were called active. Roughly 4% stayed inconclusive and do not appear here. This excerpt belongs to a sample that is enriched for actives.
attribute_measured: max response, negative = inhibition (%)
Reply with just the number (in %).

Item: Cc1ccc(C(=O)N/C(=C\c2ccc(F)cc2)C(=O)NCCN2CCOCC2)cc1 Test system: Serine/threonine-protein kinase PLK1 (Homo sapiens) Read-out: max response, negative = inhibition Value: ?
-16.1

Next: CCNC(=O)C1(C)CCN(C(=O)c2ccccc2)C1 (stereo not given)
-1.07

Next: COc1ccc(/C=C2\SC(=S)N(CCC(=O)N3CCOCC3)C2=O)cc1OC
-7.23

Next: O=C(Nc1ccc(F)cc1)Nc1nnc([C@H]2C[C@H](O)[C@@H](CO)O2)s1
3.58

Next: COC(=O)c1ccc2c(c1)S(=O)(=O)NC2C (stereo not given)
-7.33

Next: CC1CCCC(NC(=O)COC(=O)c2ccccc2C(=O)N(C)C2CCCCC2)C1C (stereo not given)
-13.1

Next: O=C(c1ccc(C(F)(F)F)cc1)N1CCC(=O)N([C@H](COCc2ccccc2)Cc2ccccc2)CC1
-8.35

Next: O=C(NCCN1CCOCC1)/C(=C/c1ccc(F)cc1)NC(=O)c1ccccc1
-12.8

Next: CC1(C(=O)O)CCN1C(=O)/C=C/c1ccccc1 (stereo not given)
-4.73

Next: S=c1[nH]nc(-c2cccs2)n1/N=C/c1cn(-c2ccccc2)nc1-c1ccc(Cl)cc1
-14.4

---

Can you tell me max response, negative = inhibition for the items I'm about to list?
# system: Serine/threonine-protein kinase PLK1 (Homo sapiens) (UniProt P53350)
# assay_comment: qHTS for Inhibitors of PLK1-PDB (polo-like kinase 1 - polo-box domain): Primary Screen; further: series mostly up to about 57 µM; on the % scale 0 is the no-effect control and ±100 the full control effect; nearly all actives have a fitted effect of over 65% in size
# measurement_parameters: Plk1 PBD binding of FITC phosphopeptide, fluorescence polarization
# Excerpt: The polo-like kinase 1 (Plk1) is a member of a conserved subfamily of serine / threonine protein kinases that plays a pivotal roles in cell proliferation. It has a C-terminal non-catalytic region called the polo-box domain (PBD) that plays a crucial role in the subcellular localization of the Plk1. […] This project employed a fluorescence polarization (FP) assay using a FITC-conjugated phospho-9-mer (p-9-mer) peptide and purified human Plk1 PBD protein. […]
Among all 360,000 compounds or so, about 10,000 (2.8%) were called active. About 4% were inconclusive and are not listed. Many of the other results were omitted from the sample, so actives are more common in it than they were.

Given CCC(=O)Nc1sc(C(=O)Nc2ccccc2)c(C)c1C(=O)OC , state its recorded max response, negative = inhibition.
-13% (inactive)

Next: COc1ccc(C(C(=O)NC(C)(C)C)N(Cc2ccc(F)cc2)C(=O)CCC(=O)Nc2cc(C)on2)cc1 (stereo not given)
-11.5% (inactive)

Next: Nc1nc(SCC(=O)Nc2ccc(Cl)cc2C(F)(F)F)n[nH]1
-8.67% (inactive)

Next: COc1ccc(S(=O)(=O)NC(=O)C2(C)CCN2C(=O)COc2ccc(Cl)cc2)cc1 (stereo not given)
-3.35% (inactive)

Next: COc1ccc(C(C(=O)NCc2ccccc2)n2c(=O)c(-c3ccccc3)nc3ccccc32)cc1 (stereo not given)
-13.5% (inactive)

Next: CCN(C(=O)CSc1cccc[n+]1[O-])c1ccccc1
4.89% (inactive)

Next: CCCCc1ccc(S(=O)(=O)NC(=O)C2(C)CCN2C(=O)c2ccccc2)cc1 (stereo not given)
-13.3% (inactive)

Next: Nc1ccc(C(=O)Nc2ccccc2N)cc1
-11.6% (inactive)

Next: CCCCCC(=O)N1C[C@H](O)[C@@H](n2cc(COC(=O)c3ccccc3)nn2)C[C@@H]1c1ccc(C)cc1
-4.42% (inactive)

Next: Nc1nc(SCC(=O)Nc2ccc(Cl)c([N+](=O)[O-])c2)n[nH]1
-3.6% (inactive)

---

# system: Serine/threonine-protein kinase PLK1 (Homo sapiens)
# assay_comment: qHTS for Inhibitors of PLK1-PDB (polo-like kinase 1 - polo-box domain): Primary Screen; further: series mostly up to about 57 µM; on the % scale 0 is the no-effect control and ±100 the full control effect; nearly all actives have a fitted effect of over 65% in size
# measurement_parameters: Plk1 PBD binding of FITC phosphopeptide, fluorescence polarization
Screen size: about 360,000 compounds; about 10,000 (2.8%) were called active. About 4% were inconclusive and are not listed. Only a selection was taken, and actives are over-represented in it overall.
attribute_measured: max response, negative = inhibition (%)
Reply with just the number (in %).

Given O=C(NN=Cc1ccc([N+](=O)[O-])cc1)C1CC1 , state its recorded max response, negative = inhibition.
-0.264

Next: C[C@@H]1CN([C@@H](C)CO)C(=O)c2c(c3ccccc3n2C)-c2ccccc2CO[C@H]1CN(C)C(=O)C1CC1
-5.93

Next: CN1CCN(c2ccc(NC(=O)c3ccc4c(c3)[nH]c(=O)n4Cc3ccc(F)cc3)cc2)CC1
-2.57

Next: CCCC(=O)N1CCC1(C)C(=O)NCc1ccc(SC)cc1 (stereo unspecified)
4.65

Next: O=C(CC[C@H]1O[C@@H](n2ccc(=O)[nH]c2=O)[C@H](O)[C@@H]1O)N[C@H](Cc1ccccc1)C(=O)NCc1ccco1
-11.9

Next: O=C(NCCS(=O)(=O)N1CCN(c2ccccc2)CC1)c1ccco1
-3.4

Next: CC(C)(C)C(=O)c1c(N)[nH]c(C(=O)c2ccccc2)c1-c1ccc(F)cc1
2.51

Next: O=C(NCCS(=O)(=O)N1CCN(c2ccccc2)CC1)c1cc(=O)c2ccccc2o1
-10.4

Next: N#Cc1cc([N+](=O)[O-])ccc1Oc1cccc(/C=N/NC(=O)c2ccc(Cl)cc2)c1
0.641

Next: Cc1ccccc1NC(=O)c1cc(S(=O)(=O)Nc2cccc(C(=O)O)c2)ccc1Cl
4.03

Next: Nc1cccc(-c2cncc(N3CCN(Cc4ccccn4)CC3)n2)c1
-6.49

Next: COc1ccc(NC(=O)C2(C)Cc3c(-c4cccc(NC(C)=O)c4)ccnc3O2)cc1OC (stereo unspecified)
-12.3

Next: COc1cc(N2C(=O)CSC2=S)cc(OC)c1OC
-18.2

Next: O=C1CSC(=S)N1c1ccc(O)cc1
1.87

Next: CCCc1ccc(C(O)c2ncc(-c3cccc(OC)c3)[nH]2)cc1 (stereo unspecified)
-2.5

Next: CCCNC(=O)C1(C)CCCN(Cc2c(C)nn(-c3ccccc3)c2C)C1 (stereo unspecified)
2.73

Next: COc1ccc(C(C)(C)C)cc1NC(=O)CN(C)C1=NS(=O)(=O)c2ccccc21
-6.05

Next: Cc1ccc(CS(=O)(=O)c2ncc(Cl)c(C(=O)Nc3nnc(C)s3)n2)cc1
-16.3

Next: CCOc1ccc(/C=N/NC(=O)CSc2ccccn2)cc1O
-2.2

Next: Cc1ccccc1CN1C(=O)CSCC1(C)C(=O)Nc1c(C)cccc1C (stereo unspecified)
-3.6

Next: Cc1ccccc1NC(=O)Cc1nc(COC(=O)C(C)(C)Oc2ccc(Cl)cc2)cs1
-1.61

---

Can you tell me max response, negative = inhibition for the items I'm about to list?
# system: Serine/threonine-protein kinase PLK1 (Homo sapiens) (UniProt P53350)
# assay_comment: qHTS for Inhibitors of PLK1-PDB (polo-like kinase 1 - polo-box domain): Primary Screen; further: series mostly up to about 57 µM; on the % scale 0 is the no-effect control and ±100 the full control effect; nearly all actives have a fitted effect of over 65% in size
# measurement_parameters: Plk1 PBD binding of FITC phosphopeptide, fluorescence polarization
Hit rate of the full screen: of about 360,000 compounds, about 10,000 (2.8%) were called active. Another 4% or so got no clear call; they are omitted. Shown is part of a subset that was picked to be rich in actives.

Given CCOC(=O)N1CCN(C(c2ccnc3ccccc23)c2nnnn2-c2c(C)cccc2C)CC1 (stereo not given) , state its recorded max response, negative = inhibition.
6.16% (inactive)

Next: Cc1sc(NC(=O)c2ccc3ncsc3c2)c(C(N)=O)c1C
-11% (inactive)

Next: Cc1ccc(S(=O)(=O)CC(=O)Nc2sc(C)c(C)c2C(N)=O)cc1
-9.45% (inactive)

Next: COc1cccc(/C=C(/CC(=O)Nc2ccc(N3CCOCC3)cc2)c2nc3ccccc3s2)c1
8.02% (inactive)

Next: COc1ccccc1-c1cc(NC(C)=O)c2ncc(-c3ccc(F)cc3)n2c1
-2.69% (inactive)
